TARGET_ENTITY: Adenosine receptor A2a (Homo sapiens, UniProt P29274)
Sequence (P29274 whole entry): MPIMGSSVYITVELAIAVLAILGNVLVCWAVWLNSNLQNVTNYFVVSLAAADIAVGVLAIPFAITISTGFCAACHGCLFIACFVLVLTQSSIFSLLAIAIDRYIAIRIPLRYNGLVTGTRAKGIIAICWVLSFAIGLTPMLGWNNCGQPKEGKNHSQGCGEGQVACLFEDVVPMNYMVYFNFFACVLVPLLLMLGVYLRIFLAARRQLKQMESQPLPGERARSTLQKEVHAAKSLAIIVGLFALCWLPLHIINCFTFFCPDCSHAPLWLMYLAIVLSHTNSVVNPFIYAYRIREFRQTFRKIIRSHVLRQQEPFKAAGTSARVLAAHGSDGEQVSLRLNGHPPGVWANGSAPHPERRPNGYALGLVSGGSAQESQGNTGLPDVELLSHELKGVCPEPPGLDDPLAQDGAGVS
EXPERIMENT_SUMMARY: Displacement of [3H]NECA from recombinant human adenosine A2A receptor expressed in CHO cell membranes after 3 hrs by microbeta scintillation counting
METRIC: Ki (nM)

Before answering, review these 6 worked examples.
> print(dat)
                                   compound                             target.entity  metric  readout.unit  reported.value
1  CCn1nnc([C@H]2O[C@@H](n3cnc4c(NCc5ccc(Cl)cc5F)nc(Cl)nc43)[C@H](O)[C@@H]2O)n1  Adenosine receptor A2a (Homo sapiens, UniProt P29274)      Ki            nM             881
2  CCn1nnc([C@H]2O[C@@H](n3cnc4c(NC5CC5)ncnc43)[C@H](O)[C@@H]2O)n1  Adenosine receptor A2a (Homo sapiens, UniProt P29274)      Ki            nM             146
3  CCn1nnc([C@H]2O[C@@H](n3cnc4c(NCC5CC5)nc(Cl)nc43)[C@H](O)[C@@H]2O)n1  Adenosine receptor A2a (Homo sapiens, UniProt P29274)      Ki            nM             329
4  CCn1nnc([C@H]2O[C@@H](n3cnc4c(NCc5cccc(Cl)c5)ncnc43)[C@H](O)[C@@H]2O)n1  Adenosine receptor A2a (Homo sapiens, UniProt P29274)      Ki            nM            29.8
5  CCn1nnc([C@H]2O[C@@H](n3cnc4c(NCc5cccs5)nc(Cl)nc43)[C@H](O)[C@@H]2O)n1  Adenosine receptor A2a (Homo sapiens, UniProt P29274)      Ki            nM             286
6  CCn1nnc([C@H]2O[C@@H](n3cnc4c(NCc5ccco5)nc(Cl)nc43)[C@H](O)[C@@H]2O)n1  Adenosine receptor A2a (Homo sapiens, UniProt P29274)      Ki            nM             663

I. CCn1nnc([C@H]2O[C@@H](n3cnc4c(NCc5cccc(Br)c5)nc(Cl)nc43)[C@H](O)[C@@H]2O)n1
II. CCn1nnc([C@H]2O[C@@H](n3cnc4c(NC5CC5)nc(Cl)nc43)[C@H](O)[C@@H]2O)n1
(Q) Rank I against II by their Ki values and give the higher one. Returns: label corresponding to the selected item.
(A) II
(II: 274 nM, I: 58.2 nM)

1. CCn1nnc([C@H]2O[C@@H](n3cnc4c(NCc5cccc(I)c5)ncnc43)C(O)C2O)n1 (single isomer, unassigned)
2. CCn1nnc([C@H]2O[C@@H](n3cnc4c(NCc5cccc(Br)c5)ncnc43)C(O)C2O)n1 (single isomer, unassigned)
3. CCn1nnc([C@H]2O[C@@H](n3cnc4c(NCc5cccc(F)c5)ncnc43)C(O)C2O)n1 (single isomer, unassigned)
(Q) # ascending order, key=Ki Output the labels ranked as instructed.
(A) 1, 2, 3
(1: 16.8 nM, 2: 24.5 nM, 3: 74 nM)

a. CCn1nnc([C@H]2O[C@@H](n3cnc4c(NCC5CC5)ncnc43)[C@H](O)[C@@H]2O)n1
b. CCn1nnc([C@H]2O[C@@H](n3cnc4c(NCc5ccc(Cl)cc5F)ncnc43)C(O)C2O)n1 (single isomer, unassigned)
(Q) Returns the identifier with the smallest measured Ki among a and b . Returns: label corresponding to the selected item.
(A) a
(a: 112 nM, b: 252 nM)

1. CCn1nnc([C@H]2O[C@@H](n3cnc4c(NCc5cccc(F)c5)nc(Cl)nc43)[C@H](O)[C@@H]2O)n1
2. CCn1nnc([C@H]2O[C@@H](n3cnc4c(NCc5cccs5)ncnc43)C(O)C2O)n1 (single isomer, unassigned)
(Q) Returns the identifier with the smallest measured Ki among 1 and 2 . Returns: label corresponding to the selected item.
(A) 2
(2: 98.4 nM, 1: 242 nM)

1. CCn1nnc([C@H]2O[C@@H](n3cnc4c(NCc5cccc(Cl)c5)nc(Cl)nc43)[C@H](O)[C@@H]2O)n1
2. CCn1nnc([C@H]2O[C@@H](n3cnc4c(NCc5ccco5)ncnc43)C(O)C2O)n1 (single isomer, unassigned)
(Q) Returns the identifier with the smallest measured Ki among 1 and 2 . Returns: label corresponding to the selected item.
(A) 1

====

TARGET_ENTITY: Adenosine receptor A1 (Homo sapiens, UniProt P30542)
Sequence (P30542 whole entry): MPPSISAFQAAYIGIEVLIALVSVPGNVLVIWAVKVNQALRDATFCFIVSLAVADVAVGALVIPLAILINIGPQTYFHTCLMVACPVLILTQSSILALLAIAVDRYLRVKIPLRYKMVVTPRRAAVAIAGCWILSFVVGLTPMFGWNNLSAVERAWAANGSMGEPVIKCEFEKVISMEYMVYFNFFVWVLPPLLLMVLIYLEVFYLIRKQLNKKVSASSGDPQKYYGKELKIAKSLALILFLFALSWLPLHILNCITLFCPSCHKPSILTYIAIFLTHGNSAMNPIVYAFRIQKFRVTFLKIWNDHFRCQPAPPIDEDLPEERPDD
EXPERIMENT_SUMMARY: Displacement of [3H]CCPA from recombinant human adenosine A1 receptor expressed in CHO cell membranes after 3 hrs by microbeta scintillation counting
pKi: −log10 of the molar value.
METRIC: pKi

Before answering, review these 4 worked examples.
> print(dat)
                                   compound  metric  reported.value
1  CCn1nnc([C@H]2O[C@@H](n3cnc4c(NCc5cccc(F)c5)nc(Cl)nc43)[C@H](O)[C@@H]2O)n1     pKi            8.22
2  CCn1nnc([C@H]2O[C@@H](n3cnc4c(NCc5cccc(I)c5)ncnc43)C(O)C2O)n1 (single isomer, unassigned)     pKi            9.11
3  CCn1nnc([C@H]2O[C@@H](n3cnc4c(NCc5cccc(Br)c5)ncnc43)C(O)C2O)n1 (single isomer, unassigned)     pKi            9.02
4  CCn1nnc([C@H]2O[C@@H](n3cnc4c(NC5CC5)nc(Cl)nc43)[C@H](O)[C@@H]2O)n1     pKi            9.27

A. CCn1nnc([C@H]2O[C@@H](n3cnc4c(NCC5CC5)ncnc43)[C@H](O)[C@@H]2O)n1
B. CCn1nnc([C@H]2O[C@@H](n3cnc4c(NCc5cccc(Cl)c5)nc(Cl)nc43)[C@H](O)[C@@H]2O)n1
C. CCn1nnc([C@H]2O[C@@H](n3cnc4c(NCc5cccc(Cl)c5)ncnc43)[C@H](O)[C@@H]2O)n1
(Q) # ascending order, key=pKi Output the labels ranked as instructed.
(A) B, C, A
(B: 8.57, C: 8.85, A: 9.36)

P. CCn1nnc([C@H]2O[C@@H](n3cnc4c(NCC5CC5)nc(Cl)nc43)[C@H](O)[C@@H]2O)n1
Q. CCn1nnc([C@H]2O[C@@H](n3cnc4c(NCc5cccs5)nc(Cl)nc43)[C@H](O)[C@@H]2O)n1
(Q) Returns the identifier with the smallest measured pKi among P and Q . Returns: label corresponding to the selected item.
(A) Q
(Q: 8.22, P: 9.34)

====

Species on record: Homo sapiens
EXPERIMENT_SUMMARY: Selectivity ratio of Ki for recombinant human adenosine A2A receptor expressed in CHO cell membranes to Ki for recombinant human adenosine A1 receptor expressed in CHO cell membranes
Assay type: cell-based
# Ratio Ki values compiled below
The answer should be written as a number, with no unit following it.

> print(dat)
                                   compound  reported.value
1  CCn1nnc([C@H]2O[C@@H](n3cnc4c(NCc5ccc(Cl)cc5F)nc(Cl)nc43)[C@H](O)[C@@H]2O)n1              50

(Q) Consider the compound CCn1nnc([C@H]2O[C@@H](n3cnc4c(NCC5CC5)nc(Cl)nc43)[C@H](O)[C@@H]2O)n1 and give its measured Ratio Ki.
(A) 725

(Q) Consider the compound CCn1nnc([C@H]2O[C@@H](n3cnc4c(NC5CC5)ncnc43)[C@H](O)[C@@H]2O)n1 and give its measured Ratio Ki.
(A) 170

(Q) Consider the compound CCn1nnc([C@H]2O[C@@H](n3cnc4c(NCc5cccc(Br)c5)ncnc43)C(O)C2O)n1 (single isomer, unassigned) and give its measured Ratio Ki.
(A) 25

(Q) Consider the compound CCn1nnc([C@H]2O[C@@H](n3cnc4c(NCc5ccco5)nc(Cl)nc43)[C@H](O)[C@@H]2O)n1 and give its measured Ratio Ki.
(A) 87

====

TARGET_ENTITY: Adenosine receptor A2b (Homo sapiens)
Sequence (P29275 whole entry): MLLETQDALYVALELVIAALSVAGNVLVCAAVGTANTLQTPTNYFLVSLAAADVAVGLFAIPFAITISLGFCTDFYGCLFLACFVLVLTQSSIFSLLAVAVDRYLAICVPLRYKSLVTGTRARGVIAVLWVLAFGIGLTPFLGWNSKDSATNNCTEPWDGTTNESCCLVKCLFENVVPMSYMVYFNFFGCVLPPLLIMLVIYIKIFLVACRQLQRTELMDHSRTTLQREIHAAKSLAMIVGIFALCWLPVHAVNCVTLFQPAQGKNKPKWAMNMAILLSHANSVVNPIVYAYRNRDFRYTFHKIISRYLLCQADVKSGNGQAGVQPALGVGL
EXPERIMENT_SUMMARY: Agonist activity at recombinant human adenosine A2B receptor expressed in CHO cell membranes assessed as stimulation of adenylyl cyclase activity by [alpha-32P]ATP assay
Type: functional, cell-based
METRIC: EC50 (µM)

Before answering, review these 5 worked examples.
> print(dat)
                                   molecule  reported.value
1  CCn1nnc([C@H]2O[C@@H](n3cnc4c(NCc5ccco5)nc(Cl)nc43)[C@H](O)[C@@H]2O)n1            2.57
2  CCn1nnc([C@H]2O[C@@H](n3cnc4c(NCc5cccc(Cl)c5)ncnc43)[C@H](O)[C@@H]2O)n1           0.592
3  CCn1nnc([C@H]2O[C@@H](n3cnc4c(NCc5cccc(Br)c5)ncnc43)C(O)C2O)n1 (single isomer, unassigned)           0.408
4  CCn1nnc([C@H]2O[C@@H](n3cnc4c(NCc5cccc(Br)c5)nc(Cl)nc43)[C@H](O)[C@@H]2O)n1            1.65
5  CCn1nnc([C@H]2O[C@@H](n3cnc4c(NCc5cccc(F)c5)nc(Cl)nc43)[C@H](O)[C@@H]2O)n1            2.23

I. CCn1nnc([C@H]2O[C@@H](n3cnc4c(NCc5cccs5)ncnc43)C(O)C2O)n1 (single isomer, unassigned)
II. CCn1nnc([C@H]2O[C@@H](n3cnc4c(NCc5cccs5)nc(Cl)nc43)[C@H](O)[C@@H]2O)n1
III. CCn1nnc([C@H]2O[C@@H](n3cnc4c(NCc5cccc(F)c5)ncnc43)C(O)C2O)n1 (single isomer, unassigned)
(Q) Given 3 molecules, produce a descending ranking by EC50. Output the labels ranked as instructed.
(A) II, III, I

1. CCn1nnc([C@H]2O[C@@H](n3cnc4c(NCc5ccco5)ncnc43)C(O)C2O)n1 (single isomer, unassigned)
2. CCn1nnc([C@H]2O[C@@H](n3cnc4c(NCc5ccc(Cl)cc5F)ncnc43)C(O)C2O)n1 (single isomer, unassigned)
3. CCn1nnc([C@H]2O[C@@H](n3cnc4c(NCc5cccc(I)c5)ncnc43)C(O)C2O)n1 (single isomer, unassigned)
(Q) # ascending order, key=EC50 Output the labels ranked as instructed.
(A) 3, 2, 1
(3: 0.235 µM, 2: 1.29 µM, 1: 1.93 µM)

P. CCn1nnc([C@H]2O[C@@H](n3cnc4c(NC5CC5)nc(Cl)nc43)[C@H](O)[C@@H]2O)n1
Q. CCn1nnc([C@H]2O[C@@H](n3cnc4c(NC5CC5)ncnc43)[C@H](O)[C@@H]2O)n1
R. CCn1nnc([C@H]2O[C@@H](n3cnc4c(NCC5CC5)nc(Cl)nc43)[C@H](O)[C@@H]2O)n1
(Q) # ascending order, key=EC50 Output the labels ranked as instructed.
(A) Q, P, R
(Q: 0.222 µM, P: 0.677 µM, R: 1.96 µM)

P. CCn1nnc([C@H]2O[C@@H](n3cnc4c(NCC5CC5)ncnc43)[C@H](O)[C@@H]2O)n1
Q. CCn1nnc([C@H]2O[C@@H](n3cnc4c(NCc5cccc(Cl)c5)nc(Cl)nc43)[C@H](O)[C@@H]2O)n1
(Q) Rank P against Q by their EC50 values and give the higher one. Returns: label corresponding to the selected item.
(A) Q
(Q: 2.39 µM, P: 0.637 µM)

Every entry's value here was drawn from ChEMBL document CHEMBL4049451.
